// provenance: PubChem BioAssay AID2305

system: P. falciparum 3D7 growth, pLDH absorbance; assay: blood-stage malaria parasite growth potency – strain 3D7, dose response (AID 2305)
readout.type: log10 IC50 (log10 of the value in nM)

compound="CCCC(C)N(Cc1ccc(C(C)(C)C)cc1)C(=O)c1ccc(OC)cc1 (centres undefined)" readout_type="log10 IC50" result_value=2.04
compound=COc1cccc2cc(C(=O)N[C@@H](CC(C)C)C(=O)N[C@H](/C=N/NC(=O)N3CCN(C)CC3)CCc3ccccc3)oc12 readout_type="log10 IC50" result_value=2.79
compound=CN(C)c1ccc(NC(=O)Nc2ccnc3ccc(Br)cc23)cc1 readout_type="log10 IC50" result_value=2.94
compound=COc1ccc2nccc([C@@H](O)CN3CCC(NCc4ccc5cccc(O)c5n4)CC3)c2c1 readout_type="log10 IC50" result_value=3.05
compound=CCN(CCN(C)C)Cc1ccc(-c2ccc(NS(=O)(=O)c3cccc4cccnc34)cc2)cc1 readout_type="log10 IC50" result_value=2.97
compound="COc1cc(Nc2nccc(N3CCC(NC(=O)c4cccc(C#N)c4)C3)n2)cc(OC)c1OC (centres undefined)" readout_type="log10 IC50" result_value=3.00
compound=O=C(Nc1ccc(N2CCCN(Cc3cccc(F)c3)CC2)cc1)c1ccccc1 readout_type="log10 IC50" result_value=2.98
compound=O=C(/C=C/c1ccc(Cl)c(Cl)c1)NCCCCCN1CC[C@H](NC(=O)c2ccc3c(c2)OCO3)C1 readout_type="log10 IC50" result_value=2.97
compound=COc1ccc2ncc(F)c(CCN3CCC(CNCc4cccc5c4OCO5)CC3)c2n1 readout_type="log10 IC50" result_value=2.97

* * *

tested on: P. falciparum 3D7 growth, pLDH absorbance; test: blood-stage malaria parasite growth potency – strain 3D7, dose response (AID 2305)
readout.type: IC50 (nM)

molecule=Cc1ccc2nc(C)cc(NN=Cc3ccccc3Cl)c2c1 readout_type=IC50 readout_units=nM result_value=750
molecule="COc1ccc(-c2ccc([N+](=O)[O-])cc2C(=O)NCC(C)Oc2ccc(C(F)(F)F)cc2)cc1 (stereo not given)" readout_type=IC50 readout_units=nM result_value=550
molecule=Cc1nnsc1C(=O)Nc1cccc(-c2ccc(-c3nc4ccc(F)cc4[nH]3)cc2)c1 readout_type=IC50 readout_units=nM result_value=100
molecule=Cc1cc(-c2cc(-c3ccc(OCCN(C)C)cc3)[nH]c2-c2ccc3c(c2)CCC3=NO)ccn1 readout_type=IC50 readout_units=nM result_value=870
molecule=COc1cc(CNC[C@@H](O)[C@H](Cc2ccccc2)NC(=O)c2cc(C3CCCC3)cc(N3CCCCS3(=O)=O)c2)cc(OC)c1 readout_type=IC50 readout_units=nM result_value=700

* * *

tested on: P. falciparum 3D7 growth, pLDH absorbance; experiment: blood-stage malaria parasite growth potency – strain 3D7, dose response (AID 2305)
readout.type: IC50 (nM)

compound=COc1ccc2nccc([C@@H](O)CN3CCC(NCc4cc5sccc5nc4C(F)(F)F)CC3)c2c1 result_value=910
compound=CN1CCC(c2ccc(NC(=O)c3ccc(-c4cccc(C(F)(F)F)c4)o3)cc2)CC1 result_value=1130
compound="CCCCCCCN1CC[C@@H](CCCc2ccnc3ccc(OCC4CCCNC4)cc23)[C@@H](CC)C1 (some centres undefined)" result_value=620
compound=COc1ccc2[nH]cc(C3CCN(CCC4CCN(C(=O)/C=C/c5ccc(Cl)c(Cl)c5)CC4)CC3)c2c1 result_value=860
compound="CCC(CC)CN1C(=O)C(C)(c2ccccc2)N=C1N (centres undefined)" result_value=1060
compound=CCC(CC)n1cc2c(ccc3nc(N)nc(N)c32)n1 result_value=80
compound=FC(F)(F)Oc1ccc(Nc2cc(-c3ccncc3)nc(-c3cccnc3)n2)cc1 result_value=670
compound=COc1ccc2nccc([C@@H](O)CN3CCC(NCc4ccc5scnc5c4)CC3)c2c1 result_value=400
compound=Cc1ccc(-n2[nH]c(C)c(N=Nc3cccc(-c4cccc(NC(=O)OC(C)(C)C)c4)c3O)c2=O)cc1C result_value=700

* * *

Measured IC50 values are reported for all entries that follow.
tested on: P. falciparum 3D7 growth, pLDH absorbance; assay: blood-stage malaria parasite growth potency – strain 3D7, dose response (AID 2305)
readout.type: IC50 (nM)

molecule=CCOC(=O)c1c[nH]c2c(sc3cc(OC)ccc32)c1=O result_value=390
molecule=Oc1ccc(OCc2ccccn2)cc1 result_value=980
molecule=O=C(/C=C/c1ccc(Cl)c(Cl)c1)NCCCCCN1CCCN(C(=O)Nc2ccc(F)c(F)c2)CC1 result_value=800
molecule=O=C(Nc1cc(C(F)(F)F)cc(C(F)(F)F)c1)N1CCC(CN2CCC(c3c[nH]c4ccccc34)CC2)CC1 result_value=190
molecule=COc1cc2nc(N3CCN(C(=O)c4ccc(N(C(=O)OC(C)(C)C)C(=O)OC(C)(C)C)cc4)CC3)nc(N)c2cc1OC result_value=1000
molecule="COc1cc(C(=O)N2N=C(c3c(-c4ccccc4)c4cc(Br)ccc4[nH]c3=O)CC2c2cccc([N+](=O)[O-])c2)cc(OC)c1OC (centres undefined)" result_value=940
molecule=CCCC1(NC[C@@H](O)[C@H](Cc2ccccc2)NC(=O)c2cc(NCC)cc(N3CCCCS3(=O)=O)c2)CCCC1 result_value=500
molecule=O=C(Nc1ccc(-c2ccccc2)cc1)Nc1cccc(Cn2nc(Cl)c(N3CCNCC3)cc2=O)c1 result_value=370
molecule=CCN1CCN(CCCCNc2c3ccccc3nc3ccccc23)CC1 result_value=860

* * *

system: P. falciparum 3D7 growth, pLDH absorbance; assay: blood-stage malaria parasite growth potency – strain 3D7, dose response (AID 2305)
Decide using IC50 alone. Strictly below 0.9 µM: y. Equal to or above 0.9 µM: n.

compound=COc1cccc(-c2ccc3c(-c4cccc(NC(C)=O)c4)cnc(N)c3c2)c1 system="P. falciparum 3D7 growth, pLDH absorbance" assigned_category=y
compound=Clc1cc(Nc2ccnc3ccc(Br)cc23)ccc1Oc1ccc(Cl)c2ccccc12 system="P. falciparum 3D7 growth, pLDH absorbance" assigned_category=y
compound="O=C(/C=C/C=C/c1ccccc1)NC1CCC(CN2CCC(c3c[nH]c4ccccc34)CC2)CC1 (stereo not drawn)" system="P. falciparum 3D7 growth, pLDH absorbance" assigned_category=y
compound="Cc1ccc(NC(=O)c2ccc3ncccc3c2)cc1OC1CCN(C(C)C)C1 (stereo not drawn)" system="P. falciparum 3D7 growth, pLDH absorbance" assigned_category=n
compound=NCc1ccc(-c2ccccc2CNC2CCN(Cc3ccccc3)CC2)cc1 system="P. falciparum 3D7 growth, pLDH absorbance" assigned_category=y
compound=CC(C)CNCc1ccc(-c2ccc(CN(CCCN3CCN(C)CC3)C(=O)CCC3CCCC3)cc2)cc1 system="P. falciparum 3D7 growth, pLDH absorbance" assigned_category=n
compound=COc1ccc(NC(=O)[C@H](Cc2ccccc2)Nc2cc(C)nc(NCCc3ccccc3OC)n2)cc1 system="P. falciparum 3D7 growth, pLDH absorbance" assigned_category=y
compound=CC(C)(C)c1cc(C(=O)N2CCN(c3ncccc3C(F)(F)F)CC2)n(Cc2ccccc2)n1 system="P. falciparum 3D7 growth, pLDH absorbance" assigned_category=y
compound=O=C(NC=Nc1cc([N+](=O)[O-])c(-c2ccncc2)n1-c1ccccc1)c1cccc(O)c1 system="P. falciparum 3D7 growth, pLDH absorbance" assigned_category=y
compound=O=C(Nc1cccc(-c2ccc(CN3CCCC3)cc2)c1)c1cccc(Cl)c1 system="P. falciparum 3D7 growth, pLDH absorbance" assigned_category=y
compound="O=C(/C=C/c1ccc(Cl)c(Cl)c1)NCCC1CCC(N2CCC(c3c[nH]c4ccc(O)cc34)CC2)CC1 (stereo not drawn)" system="P. falciparum 3D7 growth, pLDH absorbance" assigned_category=y
compound="O=C(NC1CCC(CN2CCC(c3c[nH]c4ccccc34)CC2)CC1)c1ccc(-c2ccccc2[N+](=O)[O-])o1 (stereo not drawn)" system="P. falciparum 3D7 growth, pLDH absorbance" assigned_category=y
compound=CC1(C)C=C(c2ccncc2)c2cc(Cl)ccc2O1 system="P. falciparum 3D7 growth, pLDH absorbance" assigned_category=y
compound=O=C(CCCCCNC(=O)c1ccc(O)c(-c2ccc(Cl)c(Cl)c2)c1)NCCc1ccc(Cl)c(Cl)c1 system="P. falciparum 3D7 growth, pLDH absorbance" assigned_category=y
compound="Cc1cc2ccc(/C=C/C(=O)NC3CCC(CCN4CCc5ccc(C#N)cc5CC4)CC3)cc2[nH]1 (stereo not drawn)" system="P. falciparum 3D7 growth, pLDH absorbance" assigned_category=n
compound=COc1cc(NC(=O)Nc2ccnc3ccccc23)cc(OC)c1 system="P. falciparum 3D7 growth, pLDH absorbance" assigned_category=y
compound=COc1cccc2cc(C(=O)N[C@@H](CC(C)C)C(=O)N[C@H](/C=N/N(C)C(=O)OC(C)(C)C)Cc3ccccc3)oc12 system="P. falciparum 3D7 growth, pLDH absorbance" assigned_category=y
compound="N#Cc1cccc(C(=O)N2CCOC(CCN3CCC(c4ccccc4)CC3)(c3ccc(Cl)c(Cl)c3)C2)c1 (stereo not drawn)" system="P. falciparum 3D7 growth, pLDH absorbance" assigned_category=n
compound=Cc1ccc(-c2nc3ccccc3o2)cc1NCc1cc(Cc2ccccc2)ccc1O system="P. falciparum 3D7 growth, pLDH absorbance" assigned_category=n
compound="N#Cc1ccc(-c2ccc(OCC(O)CN3CCCN(Cc4cccc(O)c4Cl)CC3)cc2)cc1 (stereo not drawn)" system="P. falciparum 3D7 growth, pLDH absorbance" assigned_category=y
compound="CC(=O)C1(c2ccccc2)CCN(CCC2(c3ccc(Cl)c(Cl)c3)CN(C(=O)Nc3cccc(C(F)(F)F)c3)CCO2)CC1 (stereo not drawn)" system="P. falciparum 3D7 growth, pLDH absorbance" assigned_category=n
compound=COc1cc(OC)c(NC(=O)Nc2ccnc3ccccc23)cc1Cl system="P. falciparum 3D7 growth, pLDH absorbance" assigned_category=y
compound="Cc1ccc2c(c1C)NC(=O)C21NN=C(c2ccccc2)S1 (stereo not drawn)" system="P. falciparum 3D7 growth, pLDH absorbance" assigned_category=y
compound=CCOc1ccc(Nc2nc(N)c3ccccc3n2)cc1 system="P. falciparum 3D7 growth, pLDH absorbance" assigned_category=n
compound=Nc1nccc2ccc(-c3ccsc3)cc12 system="P. falciparum 3D7 growth, pLDH absorbance" assigned_category=y
compound=O=C(NCC1CCN(CCN2CCC(c3cn(CCO)c4ccccc34)CC2)CC1)c1ccc(-c2ccc(C(F)(F)F)cc2)cc1 system="P. falciparum 3D7 growth, pLDH absorbance" assigned_category=y
compound=CCCCCCn1c(Sc2ccc(C#N)c([N+](=O)[O-])c2)nnc1-c1ccc(N(C)C)cc1 system="P. falciparum 3D7 growth, pLDH absorbance" assigned_category=n
compound="CC(C)(C)C1CCc2nc(N)nc(N)c2C1 (stereo not drawn)" system="P. falciparum 3D7 growth, pLDH absorbance" assigned_category=y
compound=S=C(NN=Cc1ccccn1)Nc1ccc(Cl)c(Cl)c1 system="P. falciparum 3D7 growth, pLDH absorbance" assigned_category=y
compound=CCn1c(Sc2ccc([N+](=O)[O-])c(C#N)c2)nnc1-c1cccc(Cl)c1 system="P. falciparum 3D7 growth, pLDH absorbance" assigned_category=y
compound=O=C(NCCCCCN1CCCN(C(=O)Nc2ccc(F)c(C(F)(F)F)c2)CC1)[C@@H]1C[C@H]1c1ccc(Cl)c(Cl)c1 system="P. falciparum 3D7 growth, pLDH absorbance" assigned_category=n
compound=CCOc1ccc(Br)cc1/C=C/C(=O)Nc1ccc2c(c1)[C@@H]1CC[C@H]2N1C system="P. falciparum 3D7 growth, pLDH absorbance" assigned_category=n
compound=CC1(C)N=C(N)N=C(N)N1CCc1ccccc1 system="P. falciparum 3D7 growth, pLDH absorbance" assigned_category=y
